test: amyloid nucleation score (Sup35N fusion, yeast selection) (log enrichment); library NNK3; higher = more nucleation; inactive = no reads after selection;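 also: zero at mode of non-aggregating sequences after 7 days selection at 30°C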
ASSAY METRIC: amyloid nucleation score

Use the examples below as a reference point.
>>> recorded_result("DIVTTHVGKSLG")
"inactive"
>>> recorded_result("NINIMPG")
"inactive"
>>> recorded_result("FEIECNNGSGASTRLTSRIN")
"inactive"
>>> recorded_result("LTSLVLVLLLCSTRNGNGTC")
1.55
>>> recorded_result("SSRTTIQ")
"inactive"

Query amyloid nucleation score for IWYGLDIWRPLCIGAPMVKD
inactive

Provide measured amyloid nucleation score value, entry: FRFWPFSPICNWY
inactive

Tell me amyloid nucleation score reported for SVLFMRRLYSRMA
inactive

Report measured amyloid nucleation score; entry is RCWNKVFLSYQTELI
inactive

Note down amyloid nucleation score recorded for LTNLCES
inactive

Give a short answer stating reported amyloid nucleation score for SNYPWCSSSYYLGKISDLCS .
inactive

Specify measured amyloid nucleation score for DFMWLKGLNPSTLSLPWD .
inactive

Look up and state reported amyloid nucleation score for DCVYSSPCGVALIDLGAGLK
inactive

Check the records and state amyloid nucleation score for RFFLYFNCAWVILMWCKRIV
inactive

In one line, give reported amyloid nucleation score of the entry GVYPSGCYLNVRFWSLVHGA .
inactive

Answer with the recorded amyloid nucleation score of STIVGGSLCFPIASVTFNSC only.
2.2

Fill in amyloid nucleation score for record TTFSLTLIGFNDSGVKLLM
2.21

Tell me amyloid nucleation score reported for GGYVRSNCGRGVVPMVTRMA
inactive

Determine from records and report amyloid nucleation score for LSKLTSSQAGKG
inactive

Entry YNSIMFNGW needs its amyloid nucleation score filled in; supply it.
inactive

Note down amyloid nucleation score recorded for NLRFRSIFSS
inactive

Ref: the supplement of paper PMC12042874
